System: K. pneumoniae AR-0112
Format: cell-based, Klebsiella pneumoniae
CONDITION DESCRIPTION: AR-0112
No end group written: not given here.
PARAMETER: MIC (µM)

Known results for sequences:
SNKPRPQQVPPRPPHPRL [Vma1]; 2
NRPTYVPPPRPPHPRL [Ssp1]; 2

[a] ALNRPVYVPPPRPPHPRL [Mge1]
[b] AHKPVYVPPPRPPHPRL [Nme2]
Among a and b , which shows a numerically higher MIC result? API: response body contains the label of the selected item.
b
